Exercise: for every item that follows, state its recorded Population Normal (%).
System: HEK-293T
ASSAY_SUMMARY: Multiplex assay against HEK293T
Type: toxicity, cell-based
ASSAY_CONTEXT: human, 24 h, 1 µM, compound concentration 1 uM, replicate 2
Answers are plain numbers, in %.

{"COMPOUND": "CCc1cc2c(cc1CC)CC(NC[C@H](O)c1ccc(O)c3[nH]c(=O)ccc13)C2", "RESULT_UNIT": "%", "Population Normal (%)": 97}
{"COMPOUND": "CC(C)Oc1ccc(C(=O)N[C@H](CNC(=O)CN(C)C)Cc2ccc(-c3cn4cccc([C@H](C)O)c4n3)cc2)cc1Cl [GSK-923295A]", "RESULT_UNIT": "%", "Population Normal (%)": 95}
{"COMPOUND": "Cc1cn(-c2cc(NC(=O)c3ccc4c(c3)CN(c3cncnc3)C[C@@H]4C)cc(C(F)(F)F)c2)cn1", "RESULT_UNIT": "%", "Population Normal (%)": 97}
{"COMPOUND": "CNc1oc(-c2cccc3ccccc23)nc1C#N", "RESULT_UNIT": "%", "Population Normal (%)": 85}

Below are some compounds; for each one, tell me its Population Normal (%).
1. Nc1ccc(C(=O)Nc2cccc(-c3nc(N4CCOCC4)c4oc5ncccc5c4n3)c2)cn1
2. COc1cc2c(Nc3ccc(NC(=O)c4ccccc4)cc3)ncnc2cc1OCCCN1CCOCC1
3. CCCn1c(=O)c2[nH]c(C34CC5CC(CC3C5)C4)nc2n(CCC)c1=O
4. CC(=O)c1cc(-c2cc(C(=O)NC3CC3)ccc2C)c2ncccn12
5. c1ccc2oc(-c3csc(C4CCN(Cc5nc6ncccc6[nH]5)CC4)n3)cc2c1

Reply:
[91, 93, 96, 97, 93]

###

Exercise: for every item that follows, state its recorded Population Healthy Nuclei (%).
System: HEK-293T
ASSAY_SUMMARY: Multiplex assay against HEK293T
Assay type: toxicity, cell-based
ASSAY_CONTEXT: human, 12 h, 10 µM, compound concentration 10 uM, replicate 1
Give bare numbers, in %.

Past entries and their recorded results:
{"MOLECULE": "Cl.Cl.Nc1ncnc2c1c(-c1cccc(OCc3ccccc3)c1)cn2[C@H]1C[C@@H](CN2CCC2)C1", "Population Healthy Nuclei (%)": 12}
{"MOLECULE": "CNc1oc(-c2cccc3ccccc23)nc1C#N", "Population Healthy Nuclei (%)": 15}
{"MOLECULE": "CNC(=O)c1cc(Oc2ccc(NC(=O)Nc3cc(C(C)(C)C)nn3-c3ccc4ncccc4c3)c(F)c2)ccn1 [REBASTINIB]", "Population Healthy Nuclei (%)": 41}

Below are some molecules; for each one, tell me its Population Healthy Nuclei (%).
1. CC(C)(C)c1cnc(CSc2cnc(NC(=O)C3CCNCC3)s2)o1 [BMS-387032]
2. COc1cc2c(Nc3ccc(NC(=O)c4ccccc4)cc3)ncnc2cc1OCCCN1CCOCC1
3. c1ccc2oc(-c3csc(C4CCN(Cc5nc6ncccc6[nH]5)CC4)n3)cc2c1
4. CN(C)CCOc1ccc(-c2nc(-c3ccncc3)c(-c3ccc4c(c3)CC/C4=N\O)[nH]2)cc1 [SB590885]
5. CCn1c(-c2nonc2N)nc2cnc(Oc3cccc(NC(=O)c4ccc(OCCN5CCOCC5)cc4)c3)cc21 [GSK-269962A]

Reply:
1. 51
2. 59
3. 54
4. 69
5. 20

Below are some molecules; for each one, tell me its Population Healthy Nuclei (%).
1. COc1ccc(NS(=O)(=O)c2sc3ccc(Cl)cc3c2C)cc1N1CCNCC1.Cl
2. Cc1nc(Cc2cccc(C(F)(F)F)c2)sc1-c1ccc(C(N)=O)nc1 [TP-024n]
3. CCCn1c(=O)c2[nH]c(C34CC5CC(CC3C5)C4)nc2n(CCC)c1=O [ROLOFYLLINE]
4. Cc1cc2c(cc1N1C(=O)c3cccc4c(CCCO)ccc(c34)C1=O)n(C)c(=O)n2C

Reply:
1: 33; 2: 29; 3: 28; 4: 43

Below are some molecules; for each one, tell me its Population Healthy Nuclei (%).
1. Cc1cn(-c2cc(NC(=O)c3ccc4c(c3)CN(c3cncnc3)C[C@@H]4C)cc(C(F)(F)F)c2)cn1
2. Nc1ccc(C(=O)Nc2cccc(-c3nc(N4CCOCC4)c4oc5ncccc5c4n3)c2)cn1

Reply:
1. 62
2. 5
